// provenance: PubChem BioAssay (NCI)

# System: CAKI-1 renal
# Experiment description: NCI tumour cell line growth inhibition, 48 h
Metric name: TGI

>>> observed_result("CS(=O)(=O)N1CC(CCl)c2ccc([N+](=O)[O-])cc21 (centres undefined)")
"> 100 µM"
>>> observed_result("CC1=Nc2ccccc2S/C1=C(/C)NNC(=O)C(N)=O")
"> 100 µM"
>>> observed_result("CCCCC(CC)CN=C(N)NC(N)=NCCCCCCN=C(N)NC(N)=NCC(CC)CCCC (centres undefined)")
"10.3 µM"
>>> observed_result("O=C(/C=C(\\O)c1ccccc1)C(=O)NNc1ccc([N+](=O)[O-])cc1[N+](=O)[O-]")
"43.1 µM"
>>> observed_result("CC(=O)NC(CS/N=N/c1nc[nH]c1C(N)=O)C(=O)O (centres undefined)")
"> 41.2 µM"
>>> observed_result("C[C@]12CC[C@@H]3c4ccc(OP(=O)(O)O)cc4CC[C@H]3[C@@H]1CCC2=O")
"> 100 µM"
>>> observed_result("COc1cc(C2CC(c3ccc4c(c3)OCO4)=NN2C=O)cc(OC)c1OC (centres undefined)")
"> 100 µM"
>>> observed_result("O=C1c2ccccc2S(=O)(=O)c2c1cccc2[N+](=O)[O-]")
"9.83 µM"

What value of measured TGI is listed for COc1ccc(/C(=C2/O[C@@H]([C@H]3COC(C)(C)O3)[C@H]3OC(C)(C)O[C@@H]23)c2cc(OC)c(OC)c(OC)c2)cc1O ?
42.2 µM

Form field: reported TGI of CCc1nccc2c1nc(-c1nonc1N)n2CC
> 25 µM

###

# Tested on: MDA-MB-231 breast
# Experiment description: NCI tumour cell line growth inhibition, 48 h
Metric name: GI50

Worked examples follow.
>>> observed_result("CCCCCCCCCCCCCCCCN1CC2CCCCC2C1 (centres undefined)")
"4.01 µM"
>>> observed_result("O=C(CCCCCCC(=O)Nc1ccc(N(CCCl)CCCl)cc1)NO")
"6.99 µM"
>>> observed_result("COc1ccc(-c2nc3sc4c(c3c(=O)[nH]2)CCCCCC4)cc1")
"4.04 µM"

API: the following record is the query input.
Fill in: GI50 of COc1ccc2sc3c(NCCCN(C)C)nc4ccccc4c3c(=O)c2c1 is ___
1.38 µM

###

Below, each entry is listed with its recorded TGI.
# Tested on: M14 melanoma
# Experiment description: NCI tumour cell line growth inhibition, 48 h
Note: unit µM is implicit; provide only the numeric part.

>>> observed_result("N#Cc1c(N2CCCC2)[nH]c(=O)c(C(c2c(Cl)cccc2Cl)c2c(O)c(C#N)c(N3CCCC3)[nH]c2=O)c1O")
24

// next entry
Give the measured TGI of COc1cc2c(c(OC)c1)C1c3ccccc3NC(=O)N1CC2 (stereo not given) .
21.4

###

Each entry below lists one item and its recorded GI50 value.
# Tested on: RXF 393 renal
# Experiment description: NCI tumour cell line growth inhibition, 48 h

Guide cases for GI50, answers given:
>>> observed_result("C=CCC[CH2][Sn]([c]1ccccc1)([c]1ccccc1)[c]1ccccc1")
"1.34 µM"
>>> observed_result("O=C1/C(=C\\c2c[nH]c3ccccc23)c2ccccc2N1c1c(Cl)cccc1Cl")
"2.02 µM"
>>> observed_result("NCCOCCOCCNc1nc(Cc2ccccc2)nc(NCCCN2CCCC2=O)n1")
"> 100 µM"
>>> observed_result("COC(C(=O)[O][Ge]([CH3])([CH3])[CH3])c1ccccc1 (stereo unspecified)")
"> 100 µM"
>>> observed_result("CC#C[C@]1(O)CC[C@H]2[C@@H]3CCC4=CC(=O)CCC4=C3[C@@H](c3ccc4c(c3)OCO4)C[C@@]21C")
"43.8 µM"

GI50 lookup needed for NCCn1c(=O)[nH]c(=O)[nH]c1=S , thanks.
> 100 µM

Need GI50 of CC1SC(c2ccccc2)N(CCc2cccs2)C1=O (stereo unspecified) , thanks.
6.76 µM

Query (molecule): CCCCCCCCN=C(N)c1ccc(N2CCN(c3ccc(C(N)=NCCCCCCCC)cc3)CC2)cc1 ; field requested: GI50
1.13 µM

Given COc1cccc(-n2ncc3c(N/N=C/c4ccc(C(=O)NCCN(C)C)cc4)ncnc32)c1 , state its recorded GI50.
0.496 µM

Using the record for CCOC(=O)c1cc(NS(=O)(=O)c2ccccc2)cc(C(=O)OCC)c1 , report its GI50.
> 100 µM

Which measured GI50 value corresponds to COc1ccc(OC)c(/C=C2\SC(=S)NC2=O)c1 ?
18.4 µM

###

# Test system: HCC-2998 colon
# Experiment description: NCI tumour cell line growth inhibition, 48 h
Where a SMILES comes first, the peptide text is derived from it. [ ]: non-standard residue; d: D form. The star is where a group is joined. X28 = COC1=CC(=O)N(C(=O)[C@@H](O*)C(C)C)[C@H]1Cc1ccccc1; NMeV = CN[C@H](C(=O)O)C(C)C; Hexanoyl = CCCCCC(=O)*
Metric name: TGI

Known results for compounds:
>>> observed_result("CC(NNC(=O)c1ccncc1)c1ccc(F)cc1 (stereo not drawn)")
"> 100 µM"
>>> observed_result("COC(=O)C(=O)C1(CCC(C)=O)c2ccccc2-c2c(C)ccc(C)c21 (stereo not drawn)")
"> 100 µM"
>>> observed_result("CCOC(=O)c1nc2ccc(Cl)cc2c2c1Cc1ccccc1-2")
"> 100 µM"
>>> observed_result("ONc1ncnc2nc[nH]c12")
"> 100 µM"
>>> observed_result("COc1ccc2nc(N/N=C/C(C)=N/Nc3cc(C)c4cc(OC)ccc4n3)cc(C)c2c1")
"47.1 µM"
>>> observed_result("O=[N+]([O-])c1ccc(-c2csc3nc(-c4ccccc4)nn23)cc1")
"> 100 µM"

Would you mind telling me what TGI value was observed for COC(=O)c1ccccc1CC1Cc2ccc3c(c2C1=O)CCC3 (stereo not drawn) ?
> 100 µM

Fill in: TGI of [N-]=[N+]=Nc1c(C=O)c(=O)n2c3c(cccc13)CCC2 is ___
33.6 µM

What does the record list as TGI for C#CCOCn1cnc2c(Cl)ncnc21 ?
> 100 µM

GET /values?readout=TGI&item= O=C(NCCCCCCNC(=O)n1cc(F)c(=O)[nH]c1=O)NCCCOCCOCCOCCOCCOCCOCCOCCOCCOCCOCCOCCOCCOCCOCCOCCOCCOCCOCCOCCOCCOCCCNC(=O)C(O)C(O)C(O)C(O)CO (stereo not drawn)
> 100 µM

Quick one: TGI for CCCCCCCCCCC(C(=O)O)C1(C(=O)O)CCC(=O)O1 (stereo not drawn) ?
> 100 µM

Consider the compound CC#C[C@]1(O)CC[C@H]2[C@@H]3CCC4=CC(=O)CCC4=C3[C@@H](c3ccc4c(c3)OCO4)C[C@@]21C and give its measured TGI.
572 µM

Name the recorded TGI for N=c1oc2c(Cl)cc(Cl)cc2cc1C(=O)Nc1cccc2ccccc12 .
> 59.6 µM

For O=c1cc(NNc2ccccc2)[nH]c(=S)[nH]1 , what is its reported TGI?
50.5 µM

// TGI lookup, key: COc1cc(C(=O)C/C(CCCC(=O)Nc2ccccc2[N+](=O)[O-])=N/NC(=O)c2cc3ccccc3cc2O)ccc1O
> 76.2 µM

Param item = O=C(COc1ccc2c(=O)cc(-c3ccccc3)oc2c1)N1CCN(c2ccccc2)CC1 ; retrieve measured TGI.
> 100 µM

Quick one: TGI for Nn1c(NNC(=O)C(=O)Nc2cc(Cl)c(Cl)cc2Cl)n[nH]c1=S ?
> 100 µM

Which TGI value is on record for CCCCCC(=O)N[C@H](C(=O)N[C@H](C(=O)N(C)[C@H](C(=O)N1CCC[C@H]1C(=O)N1CCC[C@H]1C(=O)O[C@H](C(=O)N1C(=O)C=C(OC)[C@@H]1Cc1ccccc1)C(C)C)C(C)C)C(C)C)C(C)C (Hexanoyl-VV[NMeV]PP-X28) ?
> 100 µM

Look up TGI for this compound: CC[C@H]1C=CCC[C@@]2(C[C@@H]3CC[C@@H]4[C@H](C(=O)OCCCCCCCCCCCCCCCC(=O)O)[C@]5(CCC[C@@H](C)O5)NC(=[N+]34)N2)O1
0.283 µM

Field request: TGI | item: CS(=O)(=O)N1CC(CCl)c2ccc([N+](=O)[O-])cc21 (stereo not drawn)
> 100 µM

Record request: TGI value, item N#C/C(=C\c1ccc(O)c(O)c1)C(N)=S
> 100 µM

What does the data say about its TGI? Entry: CCSCCC(N)C(=O)O (stereo not drawn)
> 100 µM

I would be grateful if you could share the reported TGI for CCc1ccccc1NC(=O)C(=O)CC(=O)c1sc(Nc2ccccc2)nc1C .
> 100 µM

I am curious: what TGI value has been reported for CCCC(=O)OC1C(C(O)CO)OC2OC(C)(C)OC21 (stereo not drawn) ?
> 100 µM

Please give the measured TGI for this compound: CN(CC1(CO)CCC1)c1cc(Cl)nc(N)n1
> 100 µM
